Where these numbers come from: patent US7728146B2

target: DPII (Homo sapiens); test: DPII assay; type: biochemical; conditions: values >1e−4 are extrapolated values
For each entry below, report its pIC50 value.
One number for each entry, as −log10 of the molar value.

[
  {
    "compound": "NCc1c(-c2ccc(Cl)cc2Cl)ncn1CCCn1ccnc1 [Example 104b]",
    "subject of test": "DPII (Homo sapiens)",
    "pIC50": 3.56
  }
]

Then there is this compound:
Give reported pIC50 value for NCc1c(-c2ccc(Cl)cc2Cl)ncn1Cc1cccnc1 [Example 121b]
3.91

----------
test system: liver cell carcinoma cell line Hep-G2; assay: Cytotoxicity screening and LD50 determination on Hep-G2 (LDH, CytoTox-One); assay type: cell-based; conditions: 100 μM, 24 h, LDH activity in cell culture media, lysed untreated cells = 100%
Values of Cytotox 100 μM (%) HEPG2 strictly less than 3% map to Satisfied, and values of at least 3% map to Not satisfied.

Take a look at these entries with their results.
[
  {
    "molecule": "NCc1c(-c2ccc(Cl)cc2Cl)ncn1CCCCCO [Example 38b]",
    "group": "Satisfied"
  },
  {
    "molecule": "NCc1c(-c2ccc(Cl)cc2Cl)ncn1Cc1ccccc1 [Example 24b]",
    "group": "Not satisfied"
  },
  {
    "molecule": "NCc1c(-c2ccc(Cl)cc2Cl)ncn1CCCn1ccnc1 [Example 104b]",
    "group": "Satisfied"
  }
]

Please let me know if NCc1c(-c2ccc(Cl)cc2Cl)ncn1C(CO)c1ccccc1 (stereo not shown) [Example 126b] shows Cytotox 100 μM (%) HEPG2 below 3%.
Not satisfied

Please let me know if CC(C)(C)CCn1cnc(-c2ccc(Cl)cc2Cl)c1CN [Example 23b] shows Cytotox 100 μM (%) HEPG2 below 3%.
Not satisfied

Please let me know if NCc1c(-c2ccc(Cl)cc2Cl)ncn1Cc1ccc2c(c1)OCO2 [Example 125b] shows Cytotox 100 μM (%) HEPG2 below 3%.
Not satisfied

Please let me know if NCc1c(-c2ccc(Cl)cc2Cl)ncn1Cc1cccnc1 [Example 121b] shows Cytotox 100 μM (%) HEPG2 below 3%.
Satisfied

Please let me know if NCc1c(-c2ccc(Cl)cc2Cl)ncn1Cc1ccccn1 [Example 39b] shows Cytotox 100 μM (%) HEPG2 below 3%.
Not satisfied

Please let me know if COc1ccccc1Cn1cnc(-c2ccc(Cl)cc2Cl)c1CN [Example 120b] shows Cytotox 100 μM (%) HEPG2 below 3%.
Not satisfied
